# studySystem: Mu-type opioid receptor (Rattus norvegicus)
# testDetails: Binding affinity towards mu receptor in rat brain using [3H]DAMGO
# Assay type: tissue-based
readoutName: Ki (nM)
Numbers only; they are read as nM.

# lookup: CC1(C)SC[C@@H](C(=O)N[C@@H](Cc2ccccc2)C(=O)N[C@@H](Cc2ccccc2)C(N)=O)N1C(=O)[C@@H](N)Cc1ccc(O)cc1 on Mu-type opioid receptor (Rattus norvegicus), Ki = 50.4

###

# studySystem: Mu-type opioid receptor (Rattus norvegicus, UniProt P33535)
# Sequence (P33535 whole entry): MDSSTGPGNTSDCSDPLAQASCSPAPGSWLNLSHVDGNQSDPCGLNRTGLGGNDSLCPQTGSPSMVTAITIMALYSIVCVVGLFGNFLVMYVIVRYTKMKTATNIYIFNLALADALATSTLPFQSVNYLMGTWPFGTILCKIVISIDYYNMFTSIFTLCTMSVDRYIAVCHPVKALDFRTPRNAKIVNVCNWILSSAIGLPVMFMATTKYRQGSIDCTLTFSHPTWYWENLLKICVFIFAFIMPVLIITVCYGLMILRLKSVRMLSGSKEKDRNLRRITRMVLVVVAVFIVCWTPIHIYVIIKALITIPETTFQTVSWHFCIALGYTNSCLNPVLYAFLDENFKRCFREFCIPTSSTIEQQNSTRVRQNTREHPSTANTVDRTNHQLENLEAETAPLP
# testDetails: Binding affinity towards mu receptor in rat brain using [3H]DAMGO
# Assay type: tissue-based
Kindly state log10 Ki for each of the entries shown.
Remember, log10 of Ki, in nM.

I looked up NC(=O)[C@@H]1CCCN1C(=O)[C@@H](Cc1ccccc1)NC(=O)[C@@H]1COCN1C(=O)[C@@H](N)Cc1ccc(O)cc1 and its log10 Ki for Mu-type opioid receptor (Rattus norvegicus, UniProt P33535) was 1.77

Sample NC(=O)[C@H](Cc1ccccc1)NC(=O)[C@H](Cc1ccccc1)NC(=O)[C@@H]1CSCN1C(=O)[C@@H](N)Cc1ccc(O)cc1 , system: Mu-type opioid receptor (Rattus norvegicus, UniProt P33535). Its log10 Ki is 0.81

Result for CC1(C)SC[C@@H](C(=O)N[C@H](Cc2ccccc2)C(=O)N2CCC[C@H]2C(N)=O)N1C(=O)[C@@H](N)Cc1ccc(O)cc1 , tested on Mu-type opioid receptor (Rattus norvegicus, UniProt P33535), log10 Ki: 1.58

Mu-type opioid receptor (Rattus norvegicus, UniProt P33535) log10 Ki of NC(=O)[C@H](Cc1ccccc1)NC(=O)[C@H](Cc1ccccc1)NC(=O)[C@@H]1COCN1C(=O)[C@@H](N)Cc1ccc(O)cc1 is 0.90

Param item: CC1(C)OC[C@@H](C(=O)N[C@@H](Cc2ccccc2)C(=O)N[C@@H](Cc2ccccc2)C(N)=O)N1C(=O)[C@@H](N)Cc1ccc(O)cc1 ; param system: Mu-type opioid receptor (Rattus norvegicus, UniProt P33535); output log10 Ki: 1.67

Case CC1(C)OC[C@@H](C(=O)N[C@H](Cc2ccccc2)C(=O)N2CCC[C@H]2C(N)=O)N1C(=O)[C@@H](N)Cc1ccc(O)cc1 , Mu-type opioid receptor (Rattus norvegicus, UniProt P33535), log10 Ki recorded as 1.98

Query NC(=O)[C@@H]1CCCN1C(=O)[C@@H](Cc1ccccc1)NC(=O)[C@@H]1CSCN1C(=O)[C@@H](N)Cc1ccc(O)cc1 on Mu-type opioid receptor (Rattus norvegicus, UniProt P33535); log10 Ki returned: 0.93
